# test.system: T1, human IFNAR-1 protein (form not stated) (human, UniProt P17181 28-436, limits assumed)
# T1 construct: bispecific ELISA
# T1 sequence (looked up): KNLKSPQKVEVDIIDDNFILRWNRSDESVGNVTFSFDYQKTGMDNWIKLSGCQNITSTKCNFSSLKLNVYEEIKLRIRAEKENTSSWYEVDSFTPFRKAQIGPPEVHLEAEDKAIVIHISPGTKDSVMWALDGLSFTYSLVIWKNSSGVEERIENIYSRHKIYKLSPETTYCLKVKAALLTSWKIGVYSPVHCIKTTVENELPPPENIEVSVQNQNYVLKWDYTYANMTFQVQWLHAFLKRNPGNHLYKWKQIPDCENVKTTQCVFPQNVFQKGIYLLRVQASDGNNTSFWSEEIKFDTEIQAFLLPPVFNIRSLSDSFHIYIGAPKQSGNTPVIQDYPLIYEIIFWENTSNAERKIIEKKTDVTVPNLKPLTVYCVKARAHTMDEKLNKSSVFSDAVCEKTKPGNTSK
# experiment.notes: affinity ranking of expressed humanized 8G11 IgGs (method not named)
measured.endpoint: kon (M⁻¹ s⁻¹)
Expressed in M⁻¹ s⁻¹, but write only the number.

Query block: Param item = 8G11 humanized VH2 + VL3 (antibody, V domains shown, Humanized IgG expressed in HEK293; also called VH2 + VL3 (8G11)) VH: QVQLVQSGAEVVKPGASVKVSCKGSGFNIKDYYMHWVRQAPGQGLEWIGRIDPEDAETKYAPKFQGRVTMTADTSTSTVYMELSSLRSEDTAVYYCARGGNFYVMDYWGQGTLVTVSS VL: DIQLTQSPSFLSTSVGDRVTITCKASQNVGTNVVWYQQKPGKSPKVLIYSASYRVSGVPSRFSGSGSGTEFTLIISSVQPEDFATYFCQQKNNYPYTFGQGTKLEIK ; retrieve measured kon.
Result block: 265000
